Each record here notes measured self-aminoacylation.
test system: biotinyl-Ile-oxazolone; assay: self-aminoacylation, catalytic enhancement (BIO) (fold over background); higher = more active; k-Seq, kA / k0A0; sequences stand for … in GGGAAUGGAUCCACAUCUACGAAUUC…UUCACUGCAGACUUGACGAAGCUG
This sample holds only a part of the variants without activity.

macromolecule sequence: CCACACUCCUAGCAAUCGGUC [Fam1B.1 aminoacylation ribozyme variant]
self-aminoacylation: 0.943

macromolecule sequence: AUUCACCUAGGUCAUCAGUUG [Fam2.2 aminoacylation ribozyme variant]
self-aminoacylation: 0.954

macromolecule sequence: AAGUGUCCUAAUAGUCGCAAG [Fam3.1 aminoacylation ribozyme variant]
self-aminoacylation: 1.18

macromolecule sequence: AUUACCCUGAUCAUCGAGUUA [Fam2.1 aminoacylation ribozyme variant]
self-aminoacylation: 1.02

macromolecule sequence: GUUCACCUAAGUCAUCGGGUG [Fam2.2 aminoacylation ribozyme variant]
self-aminoacylation: 5.38

macromolecule sequence: AUUCACCUAACUCAUCGGGUG [Fam2.2 aminoacylation ribozyme variant]
self-aminoacylation: 2.36

macromolecule sequence: CUACUCCAAACAAUCGGUCUG [Fam1A.1 aminoacylation ribozyme variant]
self-aminoacylation: 0.801

macromolecule sequence: AAGUUUGCUUAUAGUCGCAAU [Fam3.1 aminoacylation ribozyme variant]
self-aminoacylation: 1.1

macromolecule sequence: AUUGCCCUGGACAUCGAGUGA [Fam2.1 aminoacylation ribozyme variant]
self-aminoacylation: 2.41

====

tested on: biotinyl-Ile-oxazolone; assay: self-aminoacylation, catalytic enhancement (BIO) (fold over background); higher = more active; k-Seq, kA / k0A0; sequences stand for … in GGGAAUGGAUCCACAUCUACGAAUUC…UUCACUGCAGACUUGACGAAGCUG
Fewer inactive variants are shown than the library holds.
experimental endpoint: self-aminoacylation

macromolecule sequence: CUACUUCAGACGAUCGGUCUG [Fam1A.1 aminoacylation ribozyme variant]
recorded value: 0.727

macromolecule sequence: AAGUUUGCUAAUAGUUGCAUG [Fam3.1 aminoacylation ribozyme variant]
recorded value: 0.96

macromolecule sequence: AUUUCCCUGUUCAUCGAGUGA [Fam2.1 aminoacylation ribozyme variant]
recorded value: 2.79

macromolecule sequence: AAGUUUGCUAAUAGUCUUAAG [Fam3.1 aminoacylation ribozyme variant]
recorded value: 1.16

macromolecule sequence: CCACAAUUCAAGCAAUCGAUC [Fam1B.1 aminoacylation ribozyme variant]
recorded value: 0.742

macromolecule sequence: CCACACGUCAAGCAAACGGUC [Fam1B.1 aminoacylation ribozyme variant]
recorded value: 0.784

macromolecule sequence: AUUCACCUAGGUCAUCCGGUG [Fam2.2 aminoacylation ribozyme variant]
recorded value: 4.67

macromolecule sequence: AUUACACUGGUCAUCGACUGA [Fam2.1 aminoacylation ribozyme variant]
recorded value: 1

macromolecule sequence: AUUACCCUAGUCAUCAAGUGA [Fam2.1 aminoacylation ribozyme variant]
recorded value: 2.05

macromolecule sequence: AAGUUUGCAAAUAUUCGCAAG [Fam3.1 aminoacylation ribozyme variant]
recorded value: 0.999

macromolecule sequence: UUUACCCUGGUCAUCGAGCGA [Fam2.1 aminoacylation ribozyme variant]
recorded value: 2.16

macromolecule sequence: AUACACCUAGGUCAUCGGGUU [Fam2.2 aminoacylation ribozyme variant]
recorded value: 2.4

macromolecule sequence: AUUCAACUAGUUCAUCGGGUG [Fam2.2 aminoacylation ribozyme variant]
recorded value: 1.95

macromolecule sequence: UUUCACCUAGGUCUUCGGGUG [Fam2.2 aminoacylation ribozyme variant]
recorded value: 4.04

macromolecule sequence: ACUACCCUGGUCAUCAAGUGA [Fam2.1 aminoacylation ribozyme variant]
recorded value: 1.67

macromolecule sequence: AUUCACCUAAGUCACCGGGUG [Fam2.2 aminoacylation ribozyme variant]
recorded value: 4.72

macromolecule sequence: ACUACCCUGGGCAUCGAGUGA [Fam2.1 aminoacylation ribozyme variant]
recorded value: 3.65

macromolecule sequence: AUACACCUAGGUCAGCGGGUG [Fam2.2 aminoacylation ribozyme variant]
recorded value: 2.29

macromolecule sequence: CUACUUUAAACGAUCGGUCUG [Fam1A.1 aminoacylation ribozyme variant]
recorded value: 0.808

macromolecule sequence: AUUACCCUGGUCGCCGAGUGA [Fam2.1 aminoacylation ribozyme variant]
recorded value: 3.48

macromolecule sequence: AUUACCCGGUUCAUCGAGUGA [Fam2.1 aminoacylation ribozyme variant]
recorded value: 3.67

macromolecule sequence: AUUCACCUAGGUCAUCGGCUA [Fam2.2 aminoacylation ribozyme variant]
recorded value: 2.67

macromolecule sequence: AAGUUCGCUAAUUGUCGCAAG [Fam3.1 aminoacylation ribozyme variant]
recorded value: 1.68

macromolecule sequence: UUUCACCUAGGCCAUCGGGUG [Fam2.2 aminoacylation ribozyme variant]
recorded value: 3.27

macromolecule sequence: UUUACUCUGGUCAUCGAGUGA [Fam2.1 aminoacylation ribozyme variant]
recorded value: 3.99

macromolecule sequence: AUAACCAUGGUCAUCGAGUGA [Fam2.1 aminoacylation ribozyme variant]
recorded value: 3.91

macromolecule sequence: UAGUUUGCUAAUAGUCACAAG [Fam3.1 aminoacylation ribozyme variant]
recorded value: 1.41

macromolecule sequence: AUUCACCUAGGUCCUCUGGUG [Fam2.2 aminoacylation ribozyme variant]
recorded value: 2.57

macromolecule sequence: AAGUUAGCUAACAGUCGCAAG [Fam3.1 aminoacylation ribozyme variant]
recorded value: 1.83

macromolecule sequence: CAACUUCAAACAAACGGUCUG [Fam1A.1 aminoacylation ribozyme variant]
recorded value: 1.07

macromolecule sequence: CCACACAUCAAGCUAUCGGUC [Fam1B.1 aminoacylation ribozyme variant]
recorded value: 0.954

macromolecule sequence: AUUGACCUACGUCAUCGGGUG [Fam2.2 aminoacylation ribozyme variant]
recorded value: 3.13

macromolecule sequence: CCACACUUCAAGCGACCGGUC [Fam1B.1 aminoacylation ribozyme variant]
recorded value: 1.22

macromolecule sequence: AUUACCCUGGACAUCGUGUGA [Fam2.1 aminoacylation ribozyme variant]
recorded value: 1.39

macromolecule sequence: AGUGCCCUGGUCAUCGAGUGA [Fam2.1 aminoacylation ribozyme variant]
recorded value: 6.36

====

test system: biotinyl-Ile-oxazolone; assay: self-aminoacylation, catalytic enhancement (BIO) (fold over background); higher = more active; k-Seq, kA / k0A0; sequences stand for … in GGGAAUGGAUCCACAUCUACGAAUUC…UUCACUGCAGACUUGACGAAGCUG
Fewer inactive variants are shown than the library holds.
Lab note: compare self-aminoacylation against 2. Equal or greater, write 1.0. Smaller, write 0.0.

macromolecule sequence: AAGUUGGCUAAUAGUCGCAGG [Fam3.1 aminoacylation ribozyme variant]
measured target: biotinyl-Ile-oxazolone
assigned label: 0.0
//
macromolecule sequence: AAGUUUGCUAAUAGUCACAAU [Fam3.1 aminoacylation ribozyme variant]
measured target: biotinyl-Ile-oxazolone
assigned label: 0.0
//
macromolecule sequence: AUGCCCCUAGGUCAUCGGGUG [Fam2.2 aminoacylation ribozyme variant]
measured target: biotinyl-Ile-oxazolone
assigned label: 1.0
//
macromolecule sequence: AUUACCCUCGUCAUCGGGUGA [Fam2.1 aminoacylation ribozyme variant]
measured target: biotinyl-Ile-oxazolone
assigned label: 1.0
//
macromolecule sequence: AAGUUUGCUAAUAGUCGCGAC [Fam3.1 aminoacylation ribozyme variant]
measured target: biotinyl-Ile-oxazolone
assigned label: 0.0
//
macromolecule sequence: AUUCACCUAGAUCGUCGGGUG [Fam2.2 aminoacylation ribozyme variant]
measured target: biotinyl-Ile-oxazolone
assigned label: 0.0
//
macromolecule sequence: AUUAGACUGGUCAUCGAGUGA [Fam2.1 aminoacylation ribozyme variant]
measured target: biotinyl-Ile-oxazolone
assigned label: 1.0
//
macromolecule sequence: CUACUUCAAAGAAUCGGACUG [Fam1A.1 aminoacylation ribozyme variant]
measured target: biotinyl-Ile-oxazolone
assigned label: 0.0
//
macromolecule sequence: AUUAACCUAGGUCAUCGGGUG [Fam2.2 aminoacylation ribozyme variant]
measured target: biotinyl-Ile-oxazolone
assigned label: 1.0
//
macromolecule sequence: CUACUUCAAACAAUAGGUCUC [Fam1A.1 aminoacylation ribozyme variant]
measured target: biotinyl-Ile-oxazolone
assigned label: 0.0
//
macromolecule sequence: AUUCGCCUAGGUCAUGGGGUG [Fam2.2 aminoacylation ribozyme variant]
measured target: biotinyl-Ile-oxazolone
assigned label: 1.0
//
macromolecule sequence: AUUCGCCUAGGUCAUCGGGUA [Fam2.2 aminoacylation ribozyme variant]
measured target: biotinyl-Ile-oxazolone
assigned label: 1.0
//
macromolecule sequence: AUCCACCUAGGUCAUCUGGUG [Fam2.2 aminoacylation ribozyme variant]
measured target: biotinyl-Ile-oxazolone
assigned label: 1.0
//
macromolecule sequence: AUAACCCUGGUCAUCUAGUGA [Fam2.1 aminoacylation ribozyme variant]
measured target: biotinyl-Ile-oxazolone
assigned label: 1.0
//
macromolecule sequence: AUUACCCUGGACAUUGAGUGA [Fam2.1 aminoacylation ribozyme variant]
measured target: biotinyl-Ile-oxazolone
assigned label: 1.0
//
macromolecule sequence: AAGUAUGCUAGUAGUCGCAAG [Fam3.1 aminoacylation ribozyme variant]
measured target: biotinyl-Ile-oxazolone
assigned label: 0.0
//
macromolecule sequence: AUUUACGUAGGUCAUCGGGUG [Fam2.2 aminoacylation ribozyme variant]
measured target: biotinyl-Ile-oxazolone
assigned label: 1.0
//
macromolecule sequence: AUUAAACUGGUCAUCGAGUGA [Fam2.1 aminoacylation ribozyme variant]
measured target: biotinyl-Ile-oxazolone
assigned label: 1.0
//
macromolecule sequence: CUACUUCAAACAAUUGUUCUG [Fam1A.1 aminoacylation ribozyme variant]
measured target: biotinyl-Ile-oxazolone
assigned label: 0.0
//
macromolecule sequence: AUUCACCAAGGUCAUCGGGUU [Fam2.2 aminoacylation ribozyme variant]
measured target: biotinyl-Ile-oxazolone
assigned label: 1.0
//
macromolecule sequence: AUUCAACUAGGUUAUCGGGUG [Fam2.2 aminoacylation ribozyme variant]
measured target: biotinyl-Ile-oxazolone
assigned label: 1.0
//
macromolecule sequence: AUACACCUAGGUCAUAGGGUG [Fam2.2 aminoacylation ribozyme variant]
measured target: biotinyl-Ile-oxazolone
assigned label: 0.0
//
macromolecule sequence: CUACUUCAAACAAUCGGUAUC [Fam1A.1 aminoacylation ribozyme variant]
measured target: biotinyl-Ile-oxazolone
assigned label: 0.0
//
macromolecule sequence: CCACUCUUCAAGCACUCGGUC [Fam1B.1 aminoacylation ribozyme variant]
measured target: biotinyl-Ile-oxazolone
assigned label: 0.0
//
macromolecule sequence: AAGUUUGCUAAUCGACGCAAG [Fam3.1 aminoacylation ribozyme variant]
measured target: biotinyl-Ile-oxazolone
assigned label: 0.0
//
macromolecule sequence: AUUCACCUAGGUCAUCGUGUG [Fam2.2 aminoacylation ribozyme variant]
measured target: biotinyl-Ile-oxazolone
assigned label: 0.0
//
macromolecule sequence: AUUCACCUAGAUCAUCUGGUG [Fam2.2 aminoacylation ribozyme variant]
measured target: biotinyl-Ile-oxazolone
assigned label: 0.0
//
macromolecule sequence: CUAAUUCAAACAGUCGGUCUG [Fam1A.1 aminoacylation ribozyme variant]
measured target: biotinyl-Ile-oxazolone
assigned label: 0.0
//
macromolecule sequence: CUACUUCAAACAAUUGGUUUG [Fam1A.1 aminoacylation ribozyme variant]
measured target: biotinyl-Ile-oxazolone
assigned label: 0.0
//
macromolecule sequence: AAGUUCGCUAAUAGUCGCUAG [Fam3.1 aminoacylation ribozyme variant]
measured target: biotinyl-Ile-oxazolone
assigned label: 0.0
//
macromolecule sequence: CUACUUCAAACGACCGGUCUG [Fam1A.1 aminoacylation ribozyme variant]
measured target: biotinyl-Ile-oxazolone
assigned label: 0.0
//
macromolecule sequence: AUUCUCCCAGGUCAUCGGGUG [Fam2.2 aminoacylation ribozyme variant]
measured target: biotinyl-Ile-oxazolone
assigned label: 1.0
//
macromolecule sequence: AUUACCCUAGUCAUCGCGUGA [Fam2.1 aminoacylation ribozyme variant]
measured target: biotinyl-Ile-oxazolone
assigned label: 1.0
//
macromolecule sequence: CUACUUAAAACUAUCGGUCUG [Fam1A.1 aminoacylation ribozyme variant]
measured target: biotinyl-Ile-oxazolone
assigned label: 0.0
//
macromolecule sequence: CGACACCUCAAGCAAUCGGUC [Fam1B.1 aminoacylation ribozyme variant]
measured target: biotinyl-Ile-oxazolone
assigned label: 0.0

Entry source: the supplement of paper PMC9233669
